- Study system: T1, human TSH receptor (full length), coated on tubes (human, UniProt P16473 22-764)
- T1 construct: TSHR coated tubes as described in WO2004/050708A2; The receptor is full length and held on plastic tubes through a mouse MAb to the TSHR; also called thyroid stimulating hormone receptor
- Method summary: inhibition of 125I-K1-70 Fab (competitor) binding to TSHR coated tubes; 100 µg/mL in HBD serum pool
Entries and their Inhibition of binding (%) values follow.
Answer in %, number only, no unit symbol.

Reference set, count: 3
K1-18 IgG (antibody, V domains shown, Human IgG1 kappa purified from hetero-hybridoma supernatant; also called human monoclonal autoantibody to the TSHR with TSH agonist activity) VH: EVQLVQSGAEVKKPGESLKISCKGSGYSFTNYWIGWVRQMPGKGLEWMGIIYPYDSDTRYSPSFEGQVTISADKSIRTAYLHWSSLKASDTAMYYCVRPRDGSYPYDAFDIWGQGTMVTVSS VL: EIVLTQSPGTLSLSPGERATLSCRASQSVSNNYLAWYQQKPGQAPRLLIYGASSRATGIPDRFSGSGSGTDFTLTISRLEPEDFAVYYCQHCGSSLRAFGQGTKVEIKR; 96
K1-18 Fab (Fab, V domains shown) VH: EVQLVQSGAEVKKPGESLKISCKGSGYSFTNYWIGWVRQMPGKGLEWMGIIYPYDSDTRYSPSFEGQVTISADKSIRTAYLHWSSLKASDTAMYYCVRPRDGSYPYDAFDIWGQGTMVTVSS VL: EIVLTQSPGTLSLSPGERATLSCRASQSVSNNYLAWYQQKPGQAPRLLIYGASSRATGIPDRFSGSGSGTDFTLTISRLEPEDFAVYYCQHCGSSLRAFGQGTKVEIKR; 85.7
K1-70 IgG (antibody, V domains shown, Human IgG1 lambda purified from hetero-hybridoma supernatant; also called human monoclonal autoantibody to the TSHR with TSH antagonist activity) VH: EVQLVQSGAEVKKPGQSLKISCKASGYSLTDNWIGWVRQKPGKGLEWMGIIYPGDSDTRYSPSFQGQVTISADKSINTAYLQWSSLKASDTAIYYCVGLDWNYNPLRYWGPGTLVTVSS VL: QSVLTQPPSVSAAPGQKVTISCSGSSSDIGSNYVSWYQQFPGTAPKLLIYDNNKRPSAIPDRFSGSKSGTSATLGITGLQTGDEADYYCGTWDSRLGIAVFGGGTQLTVLG; 97.7

Could you now look at the following binder, please?
# get_value(readout='Inhibition of binding (%)', item= K1-70 Fab (Fab, V domains shown) VH: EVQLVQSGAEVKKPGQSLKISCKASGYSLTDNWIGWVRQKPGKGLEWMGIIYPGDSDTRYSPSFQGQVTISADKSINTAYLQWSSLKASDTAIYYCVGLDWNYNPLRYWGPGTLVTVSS VL: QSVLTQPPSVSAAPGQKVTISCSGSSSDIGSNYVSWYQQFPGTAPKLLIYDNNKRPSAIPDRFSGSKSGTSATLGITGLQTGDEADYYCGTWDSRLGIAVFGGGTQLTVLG )
96.3
